Tested on: HCV 1b-377-neo replicon cells
method: HCV replicon assay, HCV 1b-377-neo replicon cells (1b FRET)
Type: cell-based, Hepatitis C virus genotype 1b
condition summary: HCV 1b-377-neo replicon cells; HCV 1b genotype
measurement name: EC50 range against HCV 1b (Table 2, Range)

{"columns": ["compound", "val"],
 "data": [
  ["O=C(C(c1ccccc1)N1C2CCC1CC2)N1CCC[C@H]1c1ncc(-c2ccc(-c3ccc(-c4cnc([C@@H]5CCCN5C(=O)C(c5ccccc5)N5C6CCC5CC6)[nH]4)cc3)cc2)[nH]1 (stereo partly shown) [Example M1]", ">A"],
  ["COC(=O)N[C@H](C(=O)N1CCC[C@H]1c1ncc(-c2ccc(-c3ccc(-c4cnc([C@@H]5CCCN5C(=O)[C@@H](NC(=O)OC)C5CC5)[nH]4)cc3C(=O)O)cc2)[nH]1)C1CC1 [Example M116]", ">A"],
  ["COC(=O)N[C@H](C(=O)N1CCC[C@H]1c1ncc(-c2ccc(-c3ccc(-c4cnc([C@@H]5CCCN5C(=O)[C@@H](NC(=O)OC)C(C)C)[nH]4)cc3C(N)=O)cc2)[nH]1)C(C)C [Example M118]", ">A"],
  ["COC(=O)N[C@@H](C(=O)N1CCC[C@H]1c1ncc(-c2ccc(-c3ccc(-c4cnc([C@@H]5CCCN5C(=O)[C@H](NC(=O)OC)C5CC5)[nH]4)cc3C(=O)O)cc2)[nH]1)C1CC1 [Example M115]", ">A"],
  ["CN(C)[C@@H](C(=O)N1CCC[C@H]1c1ncc(-c2ccc(-c3ccc(-c4cnc([C@@H]5CCCN5C(=O)CNC(=O)c5ccccc5)[nH]4)cc3)cc2)[nH]1)c1ccccc1 [Example 94-6]", "C-D"],
  ["COC(=O)N[C@H](C(=O)N1CCC[C@H]1c1ncc(-c2ccc(-c3ccc(-c4cnc([C@@H]5CCCN5C(=O)[C@@H](NC(=O)OC)C(C)C)[nH]4)cc3C(=O)O)cc2)[nH]1)C(C)C [Example M114]", ">A"]
]}

Query: // query EC50 range against HCV 1b (Table 2, Range) value for entry COC(=O)N[C@@H](C(=O)N1CCC[C@H]1c1ncc(-c2ccc(-c3ccc(-c4cnc([C@@H]5CCCN5C(=O)Cc5ccccc5Cl)[nH]4)cc3)cc2)[nH]1)c1ccccc1 [Example 84-66]
Reply: C-D

Query: // query EC50 range against HCV 1b (Table 2, Range) value for entry COC(=O)N[C@@H](C(=O)N1CCC[C@H]1c1ncc(-c2ccc(-c3ccc(-c4cnc([C@@H]5CCCN5C(=O)Cc5ccccc5OC)[nH]4)cc3)cc2)[nH]1)c1ccccc1 [Example 84-65]
Reply: C-D

Query: // query EC50 range against HCV 1b (Table 2, Range) value for entry COC(=O)N[C@@H](C(=O)N1CCC[C@H]1c1ncc(-c2ccc(-c3ccc(-c4cnc([C@@H]5CCCN5C(=O)[C@H](NC(=O)OC)c5ccccc5)[nH]4)cc3C(=O)O)cc2)[nH]1)c1ccccc1 [Example M117]
Reply: >A

Query: // query EC50 range against HCV 1b (Table 2, Range) value for entry C[C@@H](C(=O)N1CCC[C@H]1c1ncc(-c2ccc(-c3ccc(-c4cnc([C@@H]5CCCN5C(=O)[C@H](C)N(C)C)[nH]4)cc3)cc2)[nH]1)N(C)C [Example M19]
Reply: >A
